meta.source: ChEMBL document CHEMBL1201862

tested on: A498; assay: NCI tumour cell line growth inhibition, 48 h
The source made the active and inactive calls. Rule as the data show it: active = GI50 up to about 1.1 µM and inactive = higher.
Outcomes: YES for active, NO for inactive

• COc1ccc(O)c(/C=N/NC(=S)N2CCCCC2)c1 = NO
• O=C(O/C=C\OC1CCCC1(c1ccccc1)c1ccccc1)c1ccccc1 (stereo not drawn) = NO
• C/C=C/c1c(O)c(=O)c2c(OC)cc(OC)c3c4c(OC)cc(OC)c5c(=O)c(O)c(/C=C/C)c(c1c23)c54 = NO
• COCN1COCN(C)C1=O = NO
• CC(=O)OC12CCCCC1C1(CCCC1)NC2=O (stereo not drawn) = NO
• O=S1(=O)N=C(SCc2c[nH]c3ccccc23)N(c2ccccc2)c2ccncc21 = NO
• C/C(CC(O)(C(F)(F)F)C(F)(F)F)=N\NC(N)=O = NO
• CC1(Cl)C(=O)NC(=O)N([C@H]2C[C@H](O)[C@@H](CO)O2)C1N=[N+]=[N-] (stereo partly drawn) = NO
• OC(C#CCN1CCCC1)(c1ccccc1)c1ccccc1Cl (stereo not drawn) = NO
• CC(=O)C(C(C)=O)=C1CCCC(O)O1 (stereo not drawn) = NO
• O=C(/C(=C\c1ccc(Cl)cc1)c1ccccc1)c1ccccc1 = NO
• Cc1cn([C@H]2[C@@H](CO)C[C@H]2O)c(=O)[nH]c1=O = NO
• CCOP(=O)(OCC)C(Cc1cn(S(=O)(=O)c2ccc(C)cc2)cn1)C(=O)O (stereo not drawn) = NO
• CCC(C)(O)c1cn(-c2ccc(Cl)cc2)nn1 (stereo not drawn) = NO
• C/C(=N\NC(=O)c1ccncc1)c1ccc2ccccc2c1O = NO
• O=C1N(C2CCCCC2)C(=O)N1C1CCCCC1 = YES
• O=S(=O)(N/N=C/c1ccc(Cl)c(Cl)c1)c1ccccc1 = NO
• CN(CC(N)=O)C(=O)N(CCCl)N=O = NO
• COc1ccc2oc(=N)c(C(=O)Nc3ccccn3)cc2c1 = NO
• CCCCSC1=N/C(=C\c2ccc(N(C)C)cc2)C(NN)=N1 = NO
• C[C@]12CCC3c4ccc(O)cc4CC[C@H]3C1CC(=O)N(CCN1CCCC1)C2=O (stereo partly drawn) = NO
• COC(=O)C1C2C=CC(C2)C1(C(=O)OC)[S+]([O-])CC12CCC(CC1O)C2(C)C (stereo not drawn) = NO
• NC(CSSCC(N)Cc1ccccc1)Cc1ccccc1 (stereo not drawn) = NO

====

test system: COLO 205; assay: NCI tumour cell line growth inhibition, 48 h
Active and inactive are the calls of the source. No stated cut-off is given here; in the data, active = GI50 up to about 1.1 µM and inactive = higher.
measurementName: GI50

• Cc1cn(C2CC(N(O)Cc3ccccc3)C(CO)O2)c(=O)[nH]c1=O (centres undefined) = > 100 µM (inactive)
• Cc1cc(Br)cc(C)c1NC(=O)C(=O)C(C(=O)c1ccncc1)C1OC(=O)c2ccccc21 (centres undefined) = > 100 µM (inactive)
• CC(NNC(=O)c1ccncc1)c1ccccc1 (centres undefined) = > 100 µM (inactive)
• SC1=C2CCCCCC2=NC2(CCCCCC2)S1 = 17.7 µM (inactive)
• C=C(C)c1cc(C(C)(C)C)cc(C(=C)C)c1S(C)(=O)=O = 0.596 µM (active)
• c1cnc2nc3n(c2c1)CSC3 = > 100 µM (inactive)
• CC(=O)O/C=C(/C=C/OC(C)=O)C(C/C=C(\C)C#CC=C(C)C)OC(C)=O (centres undefined) = 27.9 µM (inactive)
• C=C1C(=O)C23C(O)C1CC[C@H]2C12CCCC(C)(COC(C)=O)[C@H]1[C@H](O)[C@]3(O)OC2 (some centres undefined) = 1.46 µM (inactive)
• O=C(CC1=Nc2nnc(CCCCCCCc3nnc4n3C(=O)C(CC(=O)c3ccc5ccccc5c3)=N4)n2C1=O)c1ccc2ccccc2c1 = > 100 µM (inactive)
• CN(C)Cc1cc(C(=O)O)cc(CN(C)C)c1O = > 100 µM (inactive)
• CC(=O)OC[C@]12CCC3[C@@]4(C)CCCC(C)(C)C4CC[C@@]3(C)C1CC(C1=CC(=O)OC1O)O2 (some centres undefined) = 2.25 µM (inactive)
• COc1ccc2c(c1)CCCN1Cc3cc(OC)c(OC)cc3CC21 (centres undefined) = 51.1 µM (inactive)
• O=C(c1ccc2ccccc2c1O)N1CCCCC1 = > 100 µM (inactive)
• C[C@H]1CC(=O)C[C@@H]2CC[C@@H]3[C@H](CC[C@]4(C)C(OC(=O)c5cccc6c(=O)c7ccccc7[nH]c56)CC[C@@H]34)[C@]21C (some centres undefined) = 22 µM (inactive)
• CC(=O)O[C@H]1C(=O)[C@]2(C)[C@@H](OC(=O)OCCC(O)CO)C[C@H]3OC[C@@]3(OC(C)=O)[C@H]2[C@H](OC(=O)c2ccccc2)[C@]2(O)C[C@H](OC(=O)[C@H](O)[C@@H](NC(=O)c3ccccc3)c3ccccc3)C(C)=C1C2(C)C (some centres undefined) = < 0.01 µM (active)
• O=c1[nH]c(C2CCCCC2)nc2ccc(Cl)cc12 = > 100 µM (inactive)
• CC1CC(NN)=Nc2ccccc2N1 (centres undefined) = > 100 µM (inactive)
• O=C(Cc1csc(-c2nc(CC(=O)NNc3ccccc3)cs2)n1)NNc1ccccc1 = 25.9 µM (inactive)
• Cc1cccc(C)c1NC(=O)CCc1nnc2s/c(=C\c3ccc(N(C)C)cc3)c(=O)n12 = > 100 µM (inactive)

====

Recorded GI50 values for a group of compounds are listed next.
system: HT-29; assay: NCI tumour cell line growth inhibition, 48 h
Calls of active or inactive are those of the source. Rule as the data show it: active = GI50 up to about 1.1 µM and inactive = higher.
measurementName: GI50

• COC(=O)c1c2c(cc3c1CC1(Cc4cc5c(c(C=O)c4C1)CCC5)C3)CCC2 (stereo not drawn) = 21.4 µM (inactive)
• CSc1nc2cc(S(=O)(=O)N3CCCCC3)ccc2s1 = > 100 µM (inactive)
• C[C@]12CCC3c4ccc(O)cc4CC[C@H]3C1CC(=O)N(CCN1CCCC1)C2=O (stereo partly drawn) = > 10 µM (inactive)
• O=c1cnn(C2OC(CO)C(O)C(F)C2O)c(=O)[nH]1 (stereo not drawn) = > 100 µM (inactive)
• O=c1cc(-c2ccccc2)nc2[nH]ccn12 = > 10 µM (inactive)
• CC(C)(CO[C@H]1C[C@H]2CC[C@@]1(C)C2(C)C)[N+](=O)[O-] = 13 µM (inactive)
• CCSc1nnc(CSc2nc(-c3ccccc3)c(-c3ccccc3)[nH]2)n1-c1ccccc1 = 19.4 µM (inactive)
• O=C(O)CSC(CC1(c2ccc(Cl)cc2)NC(=O)CS1)c1ccc(Cl)cc1 (stereo not drawn) = > 100 µM (inactive)

====

test system: Malme-3M; assay: NCI tumour cell line growth inhibition, 48 h
Activity calls are given as the source filed them. No stated cut-off is given here; in the data, active = GI50 up to about 1.1 µM and inactive = higher.
Recorded GI50 values for a group of molecules are listed next.
measurementName: GI50

- CCC(=O)NCC1(c2c[nH]c3ccccc23)SCCS1: > 100 µM (inactive)
- N#CC1(C#N)C2C=CC(C3CC=CC32)C1(C#N)C#N (stereo not drawn): 2.79 µM (inactive)
- COc1ccc(N2C(=O)C3c4[nH]c5c(C)cccc5c4C4CCC(C(C)C)CC4C3C2=O)cc1 (stereo not drawn): 13.4 µM (inactive)
- CCOC(=O)C(=C=C=C(c1ccccc1)c1ccccc1)C(=O)OCC: 19.8 µM (inactive)
- Cc1c(N(C)C)ccc2c(=O)c3cccc(CC(=O)O)c3oc12: > 100 µM (inactive)
- O=C1N(C2CCCCC2)C(=O)N1C1CCCCC1: 1.99 µM (inactive)
- C[N+]12C=CC=C1C(N1CCCC1)c1sc(-c3ccc(Cl)cc3)cc12 (stereo not drawn): 15.6 µM (inactive)
- CCOC(=O)C1(C#N)C(C#N)(C#N)C1(C#N)C#N: > 100 µM (inactive)
- C[C@]12C[C@@H](c3ccccc3)Nc3ccccc3N1C(c1ccccc1)=NO2: 42.9 µM (inactive)
- Cc1cc2c(cc1C(=O)CCC(=O)O)CC1(C2)Cc2cc(C)c(C(=O)CCC(=O)O)cc2C1: > 100 µM (inactive)
- O=S1(=O)N=C(SCc2c[nH]c3ccccc23)N(c2ccccc2)c2ccncc21: > 100 µM (inactive)
- CC(C)NC(=O)N(Nc1ccccc1)C(C)(C)C: > 100 µM (inactive)
- Cc1nc2ccc(F)cc2c2c1CCN2c1ccccc1: 20.2 µM (inactive)
- O=C1OC(c2cccc(C(F)(F)F)c2)(c2cccc(C(F)(F)F)c2)c2ccc3ccccc3c21: 4.79 µM (inactive)
- O=c1[nH]c(C2CCCCC2)nc2ccc(Cl)cc12: > 100 µM (inactive)
- O=S(=O)(O)c1cc(O)c(/N=N/c2ccc3ccccc3c2O)c2ccccc12: 0.0753 µM (active)
- CCC[C@H](O)[C@@H](CNc1cc(NC(C)=O)nc(NC(C)=O)n1)N(Cc1ccccc1)Cc1ccccc1: 26.1 µM (inactive)
- CCC(C)(O)c1cn(-c2ccc(Cl)cc2)nn1 (stereo not drawn): > 100 µM (inactive)
- COc1cccc(C2c3cc4c(cc3OC(NNC(N)=O)C2C)OCO4)c1O (stereo not drawn): 0.745 µM (active)
- COc1ccc2c(c1)CCCN1Cc3cc(OC)c(OC)cc3CC21 (stereo not drawn): > 100 µM (inactive)
- COc1cc(OC)c(OC)cc1/C=C\c1ccnc2ccccc12: 0.7 µM (active)
- CCC(C)[C@H]1C(=O)N=C(N)N1C(=O)OCc1ccccc1 (stereo partly drawn): > 100 µM (inactive)
- CCOC(=O)Cc1[nH]c(C(=O)c2ccccc2)cc1C(=O)c1ccccc1: 33.6 µM (inactive)
